- System: PAO1 mutant MIN16_2, nalC(aa9∆4), pilQ(nt46∆1)
- ASSAY REMARKS: MIC, Sensititre custom plate
- Assay type: cell-based
- CONDITION PARAMETERS: Pseudomonas aeruginosa, PAO1, read-out: MIC, Sensititre
MIC: recorded values
MEASURED ATTRIBUTE: MIC (µg/mL)

INSERT INTO assay_data (compound, readout_unit, result_comparator, recorded_measurement) VALUES
  ('NCC[C@H](O)C(=O)N[C@@H]1C[C@H](N)[C@@H](O[C@H]2O[C@H](CN)[C@@H](O)[C@H](O)[C@H]2O)[C@H](O)[C@H]1O[C@H]1O[C@H](CO)[C@@H](O)[C@H](N)[C@H]1O [AMI, amikacin]', 'µg/mL', '≤', 2),
  ('CC1(C)S[C@@H]2[C@H](NC(=O)[C@H](C(=O)O)c3ccsc3)C(=O)N2[C@H]1C(=O)O [TIC, ticarcillin]', 'µg/mL', '=', 64),
  ('CO/N=C(\C(=O)N[C@@H]1C(=O)N2C(C(=O)[O-])=C(C[N+]3(C)CCCC3)CS[C@H]12)c1csc(N)n1 [Cefepime, cefepime]', 'µg/mL', '=', 4),
  ('NC[C@H]1O[C@H](O[C@H]2[C@H](O)[C@@H](O[C@H]3O[C@H](CO)[C@@H](O)[C@H](N)[C@H]3O)[C@H](N)C[C@@H]2N)[C@H](N)C[C@@H]1O [TOB, tobramycin]', 'µg/mL', '≤', 0.25),
  ('C[C@@H](O)[C@H]1C(=O)N2C(C(=O)O)=C(S[C@@H]3CN[C@H](C(=O)N(C)C)C3)[C@H](C)[C@H]12 [Meropenem, meropenem]', 'µg/mL', '=', 2),
  ('C[C@@H](O)[C@H]1C(=O)N2C(C(=O)O)=C(SCCN=CN)C[C@H]12 [Imipenem, imipenem]', 'µg/mL', '=', 2),
  ('CC(C)(O/N=C(\C(=O)N[C@@H]1C(=O)N2C(C(=O)[O-])=C(C[n+]3ccccc3)CS[C@H]12)c1csc(N)n1)C(=O)O [Ceftazidime, ceftazidime]', 'µg/mL', '=', 4);

###

- Test system: P. aeruginosa PAOΔoprM
- ASSAY REMARKS: MIC, CLSI broth microdilution in BD Phoenix AST Broth
- Type: cell-based, Pseudomonas aeruginosa
- CONDITION PARAMETERS: Pseudomonas aeruginosa
MEASURED ATTRIBUTE: MIC

INSERT INTO assay_data (molecule, measured_attribute, recorded_measurement) VALUES
  ('C[C@H]1COc2c(N3CCN(C)CC3)c(F)cc3c(=O)c(C(=O)O)cn1c23 [Levofloxacin, levofloxacin]', 'MIC', '0.125 µg/mL'),
  ('O=C(N[C@H](CO)[C@H](O)c1ccc([N+](=O)[O-])cc1)C(Cl)Cl [Chloramphenicol, chloramphenicol]', 'MIC', '4 µg/mL'),
  ('CN(C)c1ccc(O)c2c1C[C@H]1C[C@H]3[C@H](N(C)C)C(O)=C(C(N)=O)C(=O)[C@@]3(O)C(O)=C1C2=O [Minocycline, minocycline]', 'MIC', '2 µg/mL'),
  ('C[C@@H](O)[C@H]1C(=O)N2C(C(=O)O)=C(S[C@@H]3CN[C@H](C(=O)N(C)C)C3)[C@H](C)[C@H]12 [Meropenem, meropenem]', 'MIC', '0.125 µg/mL'),
  ('CCn1cc(C(=O)O)c(=O)c2cc(F)c(N3CCNCC3)cc21 [Norfloxacin, norfloxacin]', 'MIC', '0.25 µg/mL'),
  ('CN(C)c1cc(NC(=O)CNC(C)(C)C)c(O)c2c1C[C@H]1C[C@H]3[C@H](N(C)C)C(O)=C(C(N)=O)C(=O)[C@@]3(O)C(O)=C1C2=O [Tigecycline, tigecycline]', 'MIC', '1 µg/mL'),
  ('CC(C)(O/N=C(\C(=O)N[C@@H]1C(=O)N2C(C(=O)[O-])=C(C[n+]3ccccc3)CS[C@H]12)c1csc(N)n1)C(=O)O [Ceftazidime, ceftazidime]', 'MIC', '2 µg/mL'),
  ('C[C@H]1c2cccc(O)c2C(=O)C2=C(O)[C@]3(O)C(=O)C(C(N)=O)=C(O)[C@@H](N(C)C)[C@@H]3[C@@H](O)[C@@H]21 [Doxycycline, doxycycline]', 'MIC', '0.5 µg/mL'),
  ('CCN[C@@H]1C[C@H](N)[C@@H](O[C@H]2OC(CN)=CC[C@H]2N)[C@H](O)[C@H]1O[C@H]1OC[C@](C)(O)[C@H](NC)[C@H]1O [Netilmicin, netilmicin]', 'MIC', '1 µg/mL'),
  ('C[C@H]1[C@H](NC(=O)/C(=N\OC(C)(C)C(=O)O)c2csc(N)n2)C(=O)N1S(=O)(=O)O [Aztreonam, aztreonam]', 'MIC', '0.5 µg/mL'),
  ('C[C@@H](O)[C@H]1C(=O)N2C(C(=O)O)=C(SCCN=CN)C[C@H]12 [Imipenem, imipenem]', 'MIC', '2 µg/mL'),
  ('CN(C)[C@@H]1C(O)=C(C(N)=O)C(=O)[C@@]2(O)C(O)=C3C(=O)c4c(O)cccc4[C@@](C)(O)[C@H]3C[C@@H]12 [Tetracycline, tetracycline]', 'MIC', '1 µg/mL'),
  ('CO/N=C(\C(=O)N[C@@H]1C(=O)N2C(C(=O)[O-])=C(C[N+]3(C)CCCC3)CS[C@H]12)c1csc(N)n1 [Cefepime, cefepime]', 'MIC', '1 µg/mL');
